B1: PCDHGA10 (parent)
chain: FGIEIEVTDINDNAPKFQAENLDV

- Variants of: B1
- Experimental protocol: protein stability index of a GFP-peptide fusion (GPS, HEK-293T) (PSI 1-6); higher = more stable;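 note: lentivirally expressed fusions sorted by FACS into six bins by GFP to DsRed ratio, PSI derived from sequencing read proportions per bin multiplied by bin number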
- Condition description: c terminus: a fixed tail appended
Collected protein stability index values appear next to each entry.
Please reply with the value in numeric form only.

>>> measurement("N11V")
2.3

Item: `E6Y` | protein stability index: 2.23

Given item `D12M` , the value recorded as its protein stability index is 1.75

Per the records, this variant ( `V24K` ) has protein stability index equal to 3.52

The reported value for `F17T` in terms of protein stability index is 4.14

Record `T8R` , field protein stability index: 2.32

Data point: `E6H` ; protein stability index = 2.19

Given item `D9G` , the value recorded as its protein stability index is 2.15

Measured protein stability index of `P15R` : 3.36

Kindly note the recorded protein stability index for `K16N` , which is 2.94

Recorded protein stability index (variant `E4F` ): 1.66

The reported measurements were obtained from the supplement of paper PMC10567573.
